Activity by entry:
Tested on: Escherichia coli
PROTOCOL DETAILS: Inhibition of Escherichia coli N-terminal hexahistidine-tagged FtsZ GTPase activity expressed in Escherichia coli BL21 (DE3) assessed as residual activity at 200 uM after 1 hr relative to control
Remember to follow the number with its unit.

Below, each entry is followed by its recorded Activity result.
[[record]]
structure_smiles = "COc1c(CC=C(C)C)c(O)cc2oc(=O)c(-c3ccc(O)cc3O)cc12"
result = "67.3%"

[[record]]
structure_smiles = "COc1cc2oc(=O)c(-c3ccc(O)cc3O)cc2c(OC)c1CC=C(C)C"
result = "88.6%"

[[record]]
structure_smiles = "CC(C)=CCc1cc(-c2coc3cc(O)cc(O)c3c2=O)cc(O)c1O"
result = "93.1%"

[[record]]
structure_smiles = "CCN(CC)CCNc1nc(/C=C/c2ccc(Cl)cc2)nc2cc3ccccc3cc12"
result = "7.7%"


Consider the record given below.
Problem: Under Escherichia coli: Activity value of COc1c(CC=C(C)C)c(O)cc(O)c1-c1coc2cc(O)ccc2c1=O ?
Result: 106%

###

Items are presented alongside their recorded Activity.
Tested on: Bacillus subtilis
PROTOCOL DETAILS: Inhibition of Bacillus subtilis N-terminal hexahistidine-tagged FtsZ GTPase activity expressed in Escherichia coli BL21 (DE3) assessed as residual activity at 20 uM after 1 hr relative to control
Could you give the number and then its unit, please?

Some solved cases for reference:
[[record]]
structure_smiles = "COc1c(CC=C(C)C)c(O)cc2oc(-c3ccc(O)cc3O)cc12"
study_system = "Bacillus subtilis"
result = "98.1%"

[[record]]
structure_smiles = "COc1c(CC=C(C)C)c(O)cc(O)c1-c1coc2cc(O)ccc2c1=O"
study_system = "Bacillus subtilis"
result = "97.4%"

[[record]]
structure_smiles = "CC(C)=CCc1cc(-c2coc3cc(O)cc(O)c3c2=O)cc(O)c1O"
study_system = "Bacillus subtilis"
result = "89.1%"

[[record]]
structure_smiles = "CC(C)=CCc1cc(-c2oc3cc(O)cc(O)c3c(=O)c2O)ccc1O"
study_system = "Bacillus subtilis"
result = "48.5%"


Problem: I am curious: what Activity value has been reported for COc1cc2oc(=O)c(-c3ccc(O)cc3O)cc2c(OC)c1CC=C(C)C ?
Result: 74.4%

###

Tested on: Escherichia coli
PROTOCOL DETAILS: Inhibition of Escherichia coli N-terminal hexahistidine-tagged FtsZ GTPase activity expressed in Escherichia coli BL21 (DE3) assessed as residual activity at 20 uM after 1 hr relative to control
The reader will find reported Activity values listed item by item below.
The reply should be a number in %, with the unit left off.

Sample records with Activity:
[[record]]
structure_smiles = "COc1c(CC=C(C)C)c(O)cc2oc(=O)c(-c3ccc(O)cc3O)cc12"
measured_metric = "Activity"
units_symbol = "%"
recorded_number = 95.9

[[record]]
structure_smiles = "COc1cc2oc(-c3ccc(O)cc3O)cc2c(OC)c1CC=C(C)C"
measured_metric = "Activity"
units_symbol = "%"
recorded_number = 88.4

[[record]]
structure_smiles = "COc1c(CC=C(C)C)c(O)cc2oc(-c3ccc(O)cc3O)cc12"
measured_metric = "Activity"
units_symbol = "%"
recorded_number = 99.4

[[record]]
structure_smiles = "COc1cc2oc(=O)c(-c3ccc(O)cc3O)cc2c(OC)c1CC=C(C)C"
measured_metric = "Activity"
units_symbol = "%"
recorded_number = 103

[[record]]
structure_smiles = "CC(C)=CCc1cc(-c2coc3cc(O)cc(O)c3c2=O)cc(O)c1O"
measured_metric = "Activity"
units_symbol = "%"
recorded_number = 97.7


Problem: Could you tell me which Activity is on file for CC(C)=CCc1cc(-c2oc3cc(O)cc(O)c3c(=O)c2O)ccc1O ?
Result: 95.2

Problem: Next entry: CCN(CC)CCNc1nc(/C=C/c2ccc(Cl)cc2)nc2cc3ccccc3cc12
Result: 57.7

Problem: Note, next up: COc1c(CC=C(C)C)c(O)cc(O)c1-c1coc2cc(O)ccc2c1=O
Result: 101

###

Tested on: Escherichia coli
PROTOCOL DETAILS: Inhibition of Escherichia coli N-terminal hexahistidine-tagged FtsZ GTPase activity expressed in Escherichia coli BL21 (DE3) assessed as residual activity at 100 uM after 1 hr relative to control
We use 70% as the dividing line for Activity: on or above the line is MET, below is NOT MET.

Field: example entries. Status: answers known.
[[record]]
structure_smiles = "COc1c(CC=C(C)C)c(O)cc(O)c1-c1coc2cc(O)ccc2c1=O"
assigned_label = "MET"

[[record]]
structure_smiles = "COc1cc2oc(-c3ccc(O)cc3O)cc2c(OC)c1CC=C(C)C"
assigned_label = "NOT MET"


Problem: Quick check: does CC(C)=CCc1cc(-c2coc3cc(O)cc(O)c3c2=O)cc(O)c1O have Activity greater than or equal to 70%?
Result: MET

Problem: Can you handle COc1c(CC=C(C)C)c(O)cc2oc(-c3ccc(O)cc3O)cc12 next?
Result: MET

Problem: Same question, CCN(CC)CCNc1nc(/C=C/c2ccc(Cl)cc2)nc2cc3ccccc3cc12 this time
Result: NOT MET

###

Test system: Bacillus subtilis
PROTOCOL DETAILS: Inhibition of Bacillus subtilis N-terminal hexahistidine-tagged FtsZ GTPase activity expressed in Escherichia coli BL21 (DE3) assessed as residual activity at 20 uM after 1 hr relative to control
Here, each record is paired with measured Activity data.
Number in %, nothing else.

[[record]]
structure_smiles = "CCN(CC)CCNc1nc(/C=C/c2ccc(Cl)cc2)nc2cc3ccccc3cc12"
measured_metric = "Activity"
recorded_number = 75.3

[[record]]
structure_smiles = "COc1cc2oc(-c3ccc(O)cc3O)cc2c(OC)c1CC=C(C)C"
measured_metric = "Activity"
recorded_number = 37.4


Problem: What value of measured Activity is listed for COc1c(CC=C(C)C)c(O)cc2oc(=O)c(-c3ccc(O)cc3O)cc12 ?
Result: 87.8

###

System: Escherichia coli
PROTOCOL DETAILS: Inhibition of Escherichia coli N-terminal hexahistidine-tagged FtsZ GTPase activity expressed in Escherichia coli BL21 (DE3) assessed as residual activity at 100 uM after 1 hr relative to control
Examples of compounds with documented Activity follow.
Please reply with the bare figure in % and do not write the unit itself.

Previously resolved entries follow.
[[record]]
compound = "CC(C)=CCc1cc(-c2oc3cc(O)cc(O)c3c(=O)c2O)ccc1O [ISOLICOFLAVONOL]"
study_system = "Escherichia coli"
measured_metric = "Activity"
recorded_number = 61.2

[[record]]
compound = "COc1c(CC=C(C)C)c(O)cc2oc(=O)c(-c3ccc(O)cc3O)cc12"
study_system = "Escherichia coli"
measured_metric = "Activity"
recorded_number = 85.6


Next:
Problem: What does the data say about its Activity? Entry: COc1cc2oc(=O)c(-c3ccc(O)cc3O)cc2c(OC)c1CC=C(C)C [GLYCYRIN]
Result: 87.8

###

System: Bacillus subtilis
PROTOCOL DETAILS: Inhibition of Bacillus subtilis N-terminal hexahistidine-tagged FtsZ GTPase activity expressed in Escherichia coli BL21 (DE3) assessed as residual activity at 200 uM after 1 hr relative to control
Lab note: cut-off is 20%. Strictly less in Activity is true. Exactly 20% or more is false.

Observe how each entry below is paired with its result.
[[record]]
structure_smiles = "COc1cc2oc(-c3ccc(O)cc3O)cc2c(OC)c1CC=C(C)C"
study_system = "Bacillus subtilis"
assigned_label = "true"

[[record]]
structure_smiles = "CCN(CC)CCNc1nc(/C=C/c2ccc(Cl)cc2)nc2cc3ccccc3cc12"
study_system = "Bacillus subtilis"
assigned_label = "true"

[[record]]
structure_smiles = "CC(C)=CCc1cc(-c2oc3cc(O)cc(O)c3c(=O)c2O)ccc1O"
study_system = "Bacillus subtilis"
assigned_label = "true"

[[record]]
structure_smiles = "COc1c(CC=C(C)C)c(O)cc(O)c1-c1coc2cc(O)ccc2c1=O"
study_system = "Bacillus subtilis"
assigned_label = "false"

[[record]]
structure_smiles = "CC(C)=CCc1cc(-c2coc3cc(O)cc(O)c3c2=O)cc(O)c1O"
study_system = "Bacillus subtilis"
assigned_label = "false"

[[record]]
structure_smiles = "COc1cc2oc(=O)c(-c3ccc(O)cc3O)cc2c(OC)c1CC=C(C)C"
study_system = "Bacillus subtilis"
assigned_label = "true"


Problem: Record COc1c(CC=C(C)C)c(O)cc2oc(-c3ccc(O)cc3O)cc12 : is its Activity strictly below 20%?
Result: false

Problem: Another compound to look at: COc1c(CC=C(C)C)c(O)cc2oc(=O)c(-c3ccc(O)cc3O)cc12
Result: false
